- target-of-assay: BTK (Homo sapiens (Human))
- Sequence (Q06187 whole entry): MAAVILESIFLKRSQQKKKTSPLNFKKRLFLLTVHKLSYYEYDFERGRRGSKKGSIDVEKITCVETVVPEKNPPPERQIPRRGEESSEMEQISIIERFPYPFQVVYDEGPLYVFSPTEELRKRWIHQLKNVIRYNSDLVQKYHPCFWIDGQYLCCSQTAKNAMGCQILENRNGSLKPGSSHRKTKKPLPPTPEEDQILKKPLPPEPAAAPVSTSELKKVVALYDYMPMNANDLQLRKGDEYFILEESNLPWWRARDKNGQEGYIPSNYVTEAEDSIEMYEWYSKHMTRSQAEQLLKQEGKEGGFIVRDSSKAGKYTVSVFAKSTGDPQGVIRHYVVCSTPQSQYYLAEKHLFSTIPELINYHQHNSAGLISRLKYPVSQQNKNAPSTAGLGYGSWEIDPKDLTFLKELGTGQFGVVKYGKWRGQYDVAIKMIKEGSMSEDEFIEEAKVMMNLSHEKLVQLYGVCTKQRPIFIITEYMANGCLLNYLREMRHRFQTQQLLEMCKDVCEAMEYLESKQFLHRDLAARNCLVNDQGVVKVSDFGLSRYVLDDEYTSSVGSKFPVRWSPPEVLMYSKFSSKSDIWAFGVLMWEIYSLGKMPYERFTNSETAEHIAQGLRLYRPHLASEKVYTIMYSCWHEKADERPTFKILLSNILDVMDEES
measure-name: IC50 (µM)
Record the value in µM, omitting the unit from your answer.

Nc1ncnc2c1c(-c1ccc(Oc3ccccc3)cc1)nn2C1CCCN(C(=O)/C=C/c2c[nH]cn2)C1 (centres unmarked) = 0.0222

Kindly review the next compound as well.
What value of IC50 has been reported for the following compound? CN(C/C=C/C(=O)N1CCCC(n2nc(-c3ccc(Oc4ccccc4)cc3)c3c(N)ncnc32)C1)CCO (centres unmarked) 0.0021

Where do the numbers come from? From patent US9181263B2.
